Molecular target: T1, human serum albumin (human, UniProt P02768 25-609)
T1 construct: also called HSA
T1 sequence (P02768 25-609 limits assumed): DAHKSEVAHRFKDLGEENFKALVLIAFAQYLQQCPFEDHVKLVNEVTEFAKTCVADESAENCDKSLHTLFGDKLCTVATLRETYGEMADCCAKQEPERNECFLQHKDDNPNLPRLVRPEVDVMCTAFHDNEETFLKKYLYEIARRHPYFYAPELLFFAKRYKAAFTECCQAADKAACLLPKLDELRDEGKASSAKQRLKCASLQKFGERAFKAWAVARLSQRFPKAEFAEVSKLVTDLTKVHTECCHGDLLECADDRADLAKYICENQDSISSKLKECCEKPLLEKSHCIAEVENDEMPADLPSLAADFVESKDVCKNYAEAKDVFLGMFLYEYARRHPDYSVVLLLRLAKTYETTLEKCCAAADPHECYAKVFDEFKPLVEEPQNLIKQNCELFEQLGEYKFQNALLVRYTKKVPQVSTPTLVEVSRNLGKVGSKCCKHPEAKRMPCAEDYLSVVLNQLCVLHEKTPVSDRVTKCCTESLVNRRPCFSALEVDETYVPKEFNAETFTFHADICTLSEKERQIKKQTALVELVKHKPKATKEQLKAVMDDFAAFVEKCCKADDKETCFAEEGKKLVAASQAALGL
Experiment: phage ELISA on HSA, purified phage, 1/3 dilution series
Test Readout: phage number, -Heat (phage)
Numbers only here, please. The scale is phage.

Consider the worked cases shown below.
Binder	Units Of Measure	phage number, -Heat
anti-HSA VH clone #1 (other, From library 4G (human VH3, DP47 germline gene + JH4 segment)) VH: EVQLLESGGGLVQPGGSLRLSCAASGFTFDLYDMSWVRQAPGKGLEWVSSIVNSGVRTYYADSVKGRFTISRDNSKNTLYLQMNSLRAEDTAVYYCAKLNQSYHWDFDYWGQGTLVTVSS	phage	1.5e+08
anti-HSA VH clone #10 (other, As clone #1; the one clone recovered with the heat step) VH: EVQLLESGGGLVQPGGSLRLSCAASGFTFDEYNMSWVRQAPGKGLEWVSTILPHGDRTYYADSVKGRFTISRDNSKNTLYLQMNSLRAEDTAVYYCAKQDPLYRFDYWGQGTLVTVSS	phage	1e+10
anti-HSA VH clone #2 (other, As clone #1) VH: EVQLLESGGGLVQPGGSLRLSCAASGFTFSDYRMSWVRQAPGKGLEWVSTIISNGKFTYYADSVKGRFTISRDNSKNTLYLQMNSLRAEDTAVYYCAKQDWMYMFDYWGQGTLVTVSS	phage	1.3e+09

Which phage number, -Heat is listed for anti-HSA VH clone #6 (other, As clone #1) VH: EVQLLESGGGLVQPGGSLRLSCAASGFTFHRYSMSWVRQAPGKGLEWVSTILPGGDVTYYADSVKGRFTISRDNSKNTLYLQMNSLRAEDTAVYYCAKQTPDYMFDYWGQGTLVTVSS ?
2.1e+07

Try this binder next: anti-HSA VH clone #4 (other, As clone #1) VH: EVQLLESGGGLVQPGGSLRLSCAASGFTFYDYNMSWVRQAPGKGLEWVSTITHTGGVTYYADSVKGRFTISRDNSKNTLYLQMNSLRAEDTAVYYCAKQNPSYQFDYWGQGTLVTVSS
5.7e+08

Try this binder next: anti-HSA VH clone #3 (other, As clone #1) VH: EVQLLESGGGLVQPGGSLRLSCAASGFTFSKYWMSWVRQAPGKGLEWVSSIDFMGPHTYYADSVKGRFTISRDNSKNTLYLQMNSLRAEDTAVYYCAKGRTSMLPMKGKFDYWGQGTLVTVSS
5.5e+07
